- system under test: beta-catenin (human)
- Sequence (B6V8E6 146-665 limits assumed): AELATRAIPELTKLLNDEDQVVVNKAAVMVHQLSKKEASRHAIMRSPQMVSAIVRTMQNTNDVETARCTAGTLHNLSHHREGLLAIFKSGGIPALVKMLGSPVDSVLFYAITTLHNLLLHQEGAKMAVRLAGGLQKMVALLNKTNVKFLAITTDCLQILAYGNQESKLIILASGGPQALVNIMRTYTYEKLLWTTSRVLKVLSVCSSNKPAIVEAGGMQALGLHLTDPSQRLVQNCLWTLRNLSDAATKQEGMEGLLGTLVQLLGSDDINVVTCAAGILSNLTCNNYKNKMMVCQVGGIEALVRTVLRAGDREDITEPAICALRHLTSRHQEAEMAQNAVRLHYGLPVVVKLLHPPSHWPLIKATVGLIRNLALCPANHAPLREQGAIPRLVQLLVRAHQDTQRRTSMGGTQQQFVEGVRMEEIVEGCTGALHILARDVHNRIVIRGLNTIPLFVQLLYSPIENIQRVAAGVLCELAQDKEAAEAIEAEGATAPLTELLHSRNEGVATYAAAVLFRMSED
- experiment summary: fluorescence polarization
pIC50: −log10 of the molar value. *1 amine or outer side, *2 acyl side, *3 side chain or, on linkers, in order; H or OH if unused. Bridges are numbered along the chain shown (N, C = ends). Primed or numbered codes have the meaning given here. [ ]: non-standard residue; d: D form. Phe(3-COOH) = N[C@@H](Cc1cccc(C(=O)O)c1)C(=O)O; 2F3MeF = Cc1cccc(C[C@H](N[*:1])C(=O)[*:2])c1F; Bta = N[C@@H](Cc1csc2ccccc12)C(=O)O; tBuAla = CC(C)(C)C[C@H](N)C(=O)O; PyrS2(4) = not defined here; GlnR = not defined here; PL3 = not defined here; B5 = not defined here

binder	pIC50
Ac-[PL3]D[tBuAla][B5]D[Phe(3-COOH)][tBuAla]AFK[PyrS2(4)][2F3MeF][Bta][GlnR]A-NH2 (staple 1-4; bridge 10-14; not fully specified (residue 10); printed as Ac-PL3-Asp-Npg-B5-Asp-3COOHF-Npg-Ala-Phe-Lys*3-PyrS2-2F3MeF-BztA-GlnR*3-Ala-NH2; reading uncertain; also: PyrS2 tied into a staple, partner not placed) [I-100]	> 7.30
